target: NSMAF; details: ASO; also: test concentration or dose not given here
These antisense oligonucleotides have a phosphorothioate backbone; sugars and methylation of C are not fully specified.
Each record is given Condition met if its reported remaining target (mRNA or protein) (fraction of control) is strictly below 0.3. Records at or above 0.3 are given Condition not met.

POLYMER SEQUENCE: AGATCCCGGAAGGTTCCT
GROUP LABEL: Condition met
//
POLYMER SEQUENCE: CACAGCATATACTCTGGT
GROUP LABEL: Condition not met
//
POLYMER SEQUENCE: GGCTGGGATATTGAATCT
GROUP LABEL: Condition not met
//
POLYMER SEQUENCE: ACTCGTGAAGGTGTTCAG
GROUP LABEL: Condition not met
//
POLYMER SEQUENCE: TTTGTGAAGTGTCTATTG
GROUP LABEL: Condition not met

====

target: MAP2K2; conditions: ASO
These antisense oligonucleotides have a phosphorothioate backbone; sugars and methylation of C are not fully specified.
Each record is given true if its reported remaining target (mRNA or protein) (fraction of control) is strictly below 0.3. Records at or above 0.3 are given false.

POLYMER SEQUENCE: GTGCCCTGCAACCGCTCC
GROUP LABEL: true
--
POLYMER SEQUENCE: ATCTCAAGGTGGATCAGC
GROUP LABEL: false
--
POLYMER SEQUENCE: CAGATGTCCGACTGCACC
GROUP LABEL: false
--
POLYMER SEQUENCE: TCATCGTCTTTGAGTTCG
GROUP LABEL: false
--
POLYMER SEQUENCE: TCCATCCCGTGACCGCTG
GROUP LABEL: true
--
POLYMER SEQUENCE: TCCACCAGGTTTGCCTCG
GROUP LABEL: true
--
POLYMER SEQUENCE: CTTCCTCCGGGCCAGCAT
GROUP LABEL: false
--
POLYMER SEQUENCE: CGGTCGGTCGGCTCGAAT
GROUP LABEL: false
--
POLYMER SEQUENCE: GTGTCCTCAGCTGGAAGG
GROUP LABEL: false
--
POLYMER SEQUENCE: GTTCACGAGGATGTTGGA
GROUP LABEL: false
--
POLYMER SEQUENCE: CTGGTTCAGCCGCAGGGT
GROUP LABEL: false

====

target: SMAD2; conditions: ASO
These antisense oligonucleotides have a phosphorothioate backbone; sugars and methylation of C are not fully specified.
Quick reference for remaining target (mRNA or protein) (fraction of control) among some sequences
ASSAY METRIC: remaining target (mRNA or protein) (fraction of control)

POLYMER SEQUENCE: TTCCTGCCCATTCTGCTC
TEST RESULT: 0.08

POLYMER SEQUENCE: TTCGATGGGATACCTGGA
TEST RESULT: 0.99

POLYMER SEQUENCE: ACTGTAGAGGTCCATTCA
TEST RESULT: 0.42

POLYMER SEQUENCE: TTAGTGTTTTCTGGAATG
TEST RESULT: 0.48

POLYMER SEQUENCE: TAAACCTAAGCAGAACCT
TEST RESULT: 0.37

POLYMER SEQUENCE: GCGGAAGTTCTGTTAGGA
TEST RESULT: 0.43

POLYMER SEQUENCE: AATGCTATGACAGAAGAG
TEST RESULT: 0.76

POLYMER SEQUENCE: CACCCTTTCACAAAACTC
TEST RESULT: 0.15

POLYMER SEQUENCE: CGTGAATGGCAAGATGGA
TEST RESULT: 0.47

POLYMER SEQUENCE: CTCTTCACAACTGGCGGC
TEST RESULT: 0.16

POLYMER SEQUENCE: GGTAACACATTTAGTATT
TEST RESULT: 0.48

====

Quick reference for remaining target (mRNA or protein) (fraction of control) among some sequences
biological target: MAP3K5; settings: ASO
These antisense oligonucleotides have a phosphorothioate backbone; sugars and methylation of C are not fully specified.
ASSAY METRIC: remaining target (mRNA or protein) (fraction of control)

POLYMER SEQUENCE: CGCCTCCGTGCTCATCTCTC
TEST RESULT: 0.1
--
POLYMER SEQUENCE: TGAGCAACAGTCAAGTCTGT
TEST RESULT: 0.56
--
POLYMER SEQUENCE: CATCTCTCCGGGCCGGGCAG
TEST RESULT: 0.61

====

target: TNF; settings: ASO
These antisense oligonucleotides have a phosphorothioate backbone; sugars and methylation of C are not fully specified.
Quick reference for remaining target (mRNA or protein) (fraction of control) among some sequences
ASSAY METRIC: remaining target (mRNA or protein) (fraction of control)

POLYMER SEQUENCE: AATAATAAATAATAAATAAAT
QUALIFIER: ≥
TEST RESULT: 1
--
POLYMER SEQUENCE: GTCGCCTCACAGAGCAATGAC
QUALIFIER: ≥
TEST RESULT: 1
--
POLYMER SEQUENCE: TAGACGATAAAGGGGTCAGAG
QUALIFIER: ≥
TEST RESULT: 1
--
POLYMER SEQUENCE: ACACTTACTGAGTGTGAGGGT
QUALIFIER: ≥
TEST RESULT: 1
--
POLYMER SEQUENCE: CCGTGCTCATGGTGTCCTTTC
QUALIFIER: =
TEST RESULT: 0.51
--
POLYMER SEQUENCE: ACTTTCCCAGCAGGTATTTGG
QUALIFIER: =
TEST RESULT: 0.88
--
POLYMER SEQUENCE: GGGAAATTCCCAGGACCAGGG
QUALIFIER: ≥
TEST RESULT: 1
--
POLYMER SEQUENCE: GGGATAGCTGGTAGTTTAG
QUALIFIER: ≥
TEST RESULT: 1
--
POLYMER SEQUENCE: CAGTCTGGGAAGCTCTGAGGG
QUALIFIER: ≥
TEST RESULT: 1
--
POLYMER SEQUENCE: CTTGAGCTCAGCTCCCTCAGG
QUALIFIER: =
TEST RESULT: 0.45
--
POLYMER SEQUENCE: AAACTTACCTACGACGTGGGC
QUALIFIER: ≥
TEST RESULT: 1
--
POLYMER SEQUENCE: GCTGAGCAGGTCCCCCTTCTC
QUALIFIER: =
TEST RESULT: 0.8
--
POLYMER SEQUENCE: ATTTGGAATTCCCAGAGTGGG
QUALIFIER: ≥
TEST RESULT: 1
--
POLYMER SEQUENCE: GGTCTCCCTCCCCAACTCTCC
QUALIFIER: =
TEST RESULT: 0.18
--
POLYMER SEQUENCE: CCTCTTTCCCTTACCCTCCTG
QUALIFIER: =
TEST RESULT: 0.1
--
POLYMER SEQUENCE: CCTCGCTGAGTTCTGCCGGCT
QUALIFIER: =
TEST RESULT: 0.99
--
POLYMER SEQUENCE: CAGTCACGGCTCCCGTGGG
QUALIFIER: =
TEST RESULT: 0.91
--
POLYMER SEQUENCE: TTCCCAACGCTGGGTCCTCCA
QUALIFIER: ≥
TEST RESULT: 1
--
POLYMER SEQUENCE: AGTGAGTTCCGAAAGCCCATT
QUALIFIER: =
TEST RESULT: 0.94
--
POLYMER SEQUENCE: CTTCTTCCCTGTTCCCCTGGC
QUALIFIER: =
TEST RESULT: 0.2
--
POLYMER SEQUENCE: AAAGCTTTAAGTCCCCCGCCC
QUALIFIER: =
TEST RESULT: 0.25
--
POLYMER SEQUENCE: CTGGTCCCTTGGTGTCCTCGC
QUALIFIER: =
TEST RESULT: 0.69
--
POLYMER SEQUENCE: TTCTTGCCCTCCCTCCCTACT
QUALIFIER: =
TEST RESULT: 0.12
--
POLYMER SEQUENCE: AGGGAAGGAAGGAAGGAAGGG
QUALIFIER: ≥
TEST RESULT: 1
--
POLYMER SEQUENCE: CATTTCTTTTCCAAGCGAAC
QUALIFIER: =
TEST RESULT: 0.94
--
POLYMER SEQUENCE: GGCACTCACCTCCTCCTTGTT
QUALIFIER: =
TEST RESULT: 0.94
--
POLYMER SEQUENCE: AGAGCCACAATTCCCTTTCTA
QUALIFIER: =
TEST RESULT: 0.2

Entry source: the OligoGym collection
